Where these numbers come from: ChEMBL document CHEMBL5154735

assay.target: ABCG2 (Homo sapiens, UniProt Q9UNQ0)
experiment.description: Activation of human ABCG2-mediated ATPase activity preincubated for 2 mins followed by ATP addition at 10 M and measured after 20 mins by colorimetric assay relative to control
Parameters: dose or concentration left out as unconfirmed
recorded.conditions: read-out: Activity
Reported activity at 20 min values are given for each entry in this list.
Please reply with the bare figure in % and do not write the unit itself.

CNC(=O)C1O[C@@H](n2cnc3c(NCc4cccc(I)c4)ncnc32)[C@H](O)[C@@H]1O (single isomer, unassigned)	98.2
CNC(=O)[C@H]1O[C@@H](n2cnc3c(NC)nc(C#Cc4ccc(Cl)s4)nc32)[C@H](O)[C@@H]1O	122
Fc1ccc(C#CC2=NC3=NC=NC3C(NCc3cccc(Cl)c3)=N2)cc1F (centres undefined)	164

Okay, now this compound:
May I ask what activity at 20 min has been recorded for CCCNc1nc(C#Cc2ccc(Cl)s2)nc2c1ncn2[C@@H]1C2CC2(C(=O)NC)[C@@H](O)[C@H]1O (single isomer, unassigned) ?
40

====

assay.target: UniProt:Q9UNQ0
experiment.description: Inhibition of human ABCG2-mediated ATPase activity preincubated for 2 mins followed by ATP addition at 10 uM and measured after 20 mins by colorimetric assay relative to control
test.readout: inhibition at 20 min, 10 µM (%)
Please reply with the bare figure in % and do not write the unit itself.

CNC(=O)C12CC1[C@@H](n1cnc3c(NCc4cccc(-n5cc(-c6ccc(F)c(F)c6)nn5)c4)nc(C#Cc4cc(F)cc(F)c4)nc31)[C@H](O)[C@@H]2O (single isomer, unassigned)	49.4
CNC(=O)C12CC1[C@@H](n1cnc3c(NCc4cccc(-n5cc(-c6ccc(F)c(F)c6)nn5)c4)nc(C#Cc4ccc(F)cc4F)nc31)[C@H](O)[C@@H]2O (single isomer, unassigned)	57.1
CNC(=O)C12CC1[C@@H](n1cnc3c(NCc4cccc(-n5cc(-c6ccc(F)c(F)c6)nn5)c4)nc(C#Cc4ccc(C(F)(F)F)cc4)nc31)[C@H](O)[C@@H]2O (single isomer, unassigned)	44.5
CNC(=O)C12CC1[C@@H](n1cnc3c(NCc4cccc(-n5cc(-c6ccc(F)c(F)c6)nn5)c4)nc(C#Cc4ccc(F)cc4)nc31)[C@H](O)[C@@H]2O (single isomer, unassigned)	74.7

May I ask what inhibition at 20 min, 10 µM has been recorded for CNC(=O)C12CC1[C@@H](n1cnc3c(NCc4cccc(-n5cc(-c6ccc(F)c(F)c6)nn5)c4)nc(C#Cc4cc(F)c(F)c(F)c4)nc31)[C@H](O)[C@@H]2O (single isomer, unassigned) ?
48.9

====

Reported inhibition at 20 min, 2.5 µM values are given for each entry in this list.
assay.target: ABCG2 (Homo sapiens)
experiment.description: Inhibition of human ABCG2-mediated ATPase activity preincubated for 2 mins followed by ATP addition at 2.5 uM and measured after 20 mins by colorimetric assay relative to control
Please reply with the bare figure in % and do not write the unit itself.

Sample answers from the record:
CNC(=O)C12CC1[C@@H](n1cnc3c(NCc4cccc(-n5cc(-c6ccc(F)c(F)c6)nn5)c4)nc(C#Cc4ccc(F)c(F)c4)nc31)[C@H](O)[C@@H]2O (single isomer, unassigned)	43.5
CNC(=O)C12CC1[C@@H](n1cnc3c(NCc4cccc(-n5cc(-c6ccc(F)c(F)c6)nn5)c4)nc(C#Cc4cc(F)cc(F)c4)nc31)[C@H](O)[C@@H]2O (single isomer, unassigned)	44.7
CNC(=O)C12CC1[C@@H](n1cnc3c(NCc4cccc(-n5cc(-c6ccc(F)c(F)c6)nn5)c4)nc(C#Cc4ccc(F)cc4)nc31)[C@H](O)[C@@H]2O (single isomer, unassigned)	54.4

Okay, now this molecule:
May I ask what inhibition at 20 min, 2.5 µM has been recorded for CNC(=O)C12CC1[C@@H](n1cnc3c(NCc4cccc(-n5cc(-c6ccc(F)c(F)c6)nn5)c4)nc(C#Cc4cc(F)c(F)c(F)c4)nc31)[C@H](O)[C@@H]2O (single isomer, unassigned) ?
38.9

====

assay.target: ABCG2 (Homo sapiens)
Sequence (Q9UNQ0 whole entry): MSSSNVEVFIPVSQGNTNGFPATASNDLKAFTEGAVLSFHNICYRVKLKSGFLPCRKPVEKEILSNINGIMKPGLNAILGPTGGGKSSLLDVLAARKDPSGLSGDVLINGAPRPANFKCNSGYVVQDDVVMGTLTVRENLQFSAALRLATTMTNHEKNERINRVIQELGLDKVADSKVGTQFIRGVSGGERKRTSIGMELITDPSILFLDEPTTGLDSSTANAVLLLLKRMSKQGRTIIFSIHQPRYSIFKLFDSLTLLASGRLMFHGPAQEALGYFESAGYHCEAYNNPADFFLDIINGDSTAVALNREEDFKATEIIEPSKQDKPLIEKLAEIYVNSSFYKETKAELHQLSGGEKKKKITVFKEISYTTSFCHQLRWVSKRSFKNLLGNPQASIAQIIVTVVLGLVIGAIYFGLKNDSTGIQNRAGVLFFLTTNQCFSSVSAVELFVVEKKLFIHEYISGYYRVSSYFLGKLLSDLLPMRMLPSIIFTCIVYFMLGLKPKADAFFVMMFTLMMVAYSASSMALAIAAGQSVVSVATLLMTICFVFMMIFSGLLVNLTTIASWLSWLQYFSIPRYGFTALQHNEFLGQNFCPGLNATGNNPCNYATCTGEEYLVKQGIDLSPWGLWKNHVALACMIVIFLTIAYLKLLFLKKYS
experiment.description: Activation of human ABCG2-mediated ATPase activity preincubated for 2 mins followed by ATP addition at 10 M and measured after 20 mins by colorimetric assay relative to control
Parameters: dose or concentration left out as unconfirmed
recorded.conditions: read-out: Activity
Give 1 (yes) when the value for activity at 20 min is at least 90%. Give 0 (no) when it is less.

Worked examples follow.
CNC(=O)[C@H]1O[C@@H](n2cnc3c(NCc4cccc(I)c4)nc(Cl)nc32)[C@H](O)[C@@H]1O	0 (no)
CNc1nc(C#Cc2ccc(Cl)s2)nc2c1ncn2[C@@H]1C2CC2(C(=O)OC)[C@@H](O)[C@H]1O (single isomer, unassigned)	0 (no)
CNC(=O)C12CC1[C@@H](n1cnc3c(NCc4cccc(Cl)c4)nc(C#Cc4ccc(Cl)s4)nc31)[C@H](O)[C@@H]2O (single isomer, unassigned)	1 (yes)
CCCNc1nc(C#Cc2ccc(Cl)s2)nc2c1ncn2[C@@H]1O[C@H](C(=O)NC)[C@@H](O)[C@H]1O	1 (yes)

Alright, here's another compound for you.
Decide: is the reported value of activity at 20 min for O[C@@H]1[C@H](O)C2CC2[C@H]1n1cnc2c(NCc3cccc(Cl)c3)nc(C#Cc3ccc(F)c(F)c3)nc21 (single isomer, unassigned) equal to or greater than 90%?
0 (no)

====

assay.target: ABCG2 (Homo sapiens, UniProt Q9UNQ0)
experiment.description: Activation of human ABCG2-mediated ATPase activity preincubated for 2 mins followed by ATP addition at 2.5 M and measured after 20 mins by colorimetric assay relative to control
Design: dose or concentration left out as unconfirmed
recorded.conditions: read-out: Activity
Reported activity at 20 min values are given for each entry in this list.
Please reply with the bare figure in % and do not write the unit itself.

May I ask what activity at 20 min has been recorded for CCCNc1nc(C#Cc2ccc(Cl)s2)nc2c1ncn2[C@@H]1C2CC2(C(=O)NC)[C@@H](O)[C@H]1O (single isomer, unassigned) ?
77.9

May I ask what activity at 20 min has been recorded for CNC(=O)C1O[C@@H](n2cnc3c(NCc4cccc(I)c4)ncnc32)[C@H](O)[C@@H]1O (single isomer, unassigned) ?
66.2

May I ask what activity at 20 min has been recorded for CCCNc1nc(C#Cc2ccc(Cl)s2)nc2c1ncn2[C@@H]1O[C@H](C(=O)NC)[C@@H](O)[C@H]1O ?
124

May I ask what activity at 20 min has been recorded for CNC(=O)[C@H]1O[C@@H](n2cnc3c(NCc4cccc(I)c4)nc(Cl)nc32)[C@H](O)[C@@H]1O ?
101

====

assay.target: ABCG2 (Homo sapiens)
experiment.description: Activation of human ABCG2-mediated ATPase activity preincubated for 2 mins followed by ATP addition at 2.5 uM and measured after 20 mins by colorimetric assay relative to control
recorded.conditions: read-out: Activity
Reported activity at 20 min, 2.5 µM values are given for each entry in this list.
Please reply with the bare figure in % and do not write the unit itself.

Sample answers from the record:
CNC(=O)C12CC1[C@@H](n1cnc3c(C)nc(C#Cc4ccc(F)c(F)c4)nc31)[C@H](O)[C@@H]2O (single isomer, unassigned)	49.6
CNC(=O)C12CC1[C@@H](n1cnc3c(NCc4cccc(Cl)c4)nc(C#Cc4ccccc4)nc31)[C@H](O)[C@@H]2O (single isomer, unassigned)	51.3
CNC(=O)C12CC1[C@@H](n1cnc3c(N[C@@H]4C[C@H]4c4ccc(F)c(F)c4)nc(C#Cc4cccc(F)c4)nc31)[C@H](O)[C@@H]2O (single isomer, unassigned)	74.8
CNC(=O)C12CC1[C@@H](n1cnc3c(NCc4cccc(Cl)c4)nc(C#Cc4ccc(F)cc4)nc31)[C@H](O)[C@@H]2O (single isomer, unassigned)	60.3
CNC(=O)C12CC1[C@@H](n1cnc3c(N[C@H]4C[C@@H]4c4ccc(F)c(F)c4)nc(C#Cc4cccc(F)c4)nc31)[C@H](O)[C@@H]2O (single isomer, unassigned)	101

May I ask what activity at 20 min, 2.5 µM has been recorded for CNC(=O)C12CC1[C@@H](n1cnc3c(NC4CC4c4ccc(F)c(F)c4)nc(C#Cc4cccc(F)c4)nc31)[C@H](O)[C@@H]2O (single isomer, unassigned) ?
111

May I ask what activity at 20 min, 2.5 µM has been recorded for CNC(=O)C12CC1[C@@H](n1cnc3c(NCc4cccc(Cl)c4)nc(C#Cc4cccc(Cl)c4)nc31)[C@H](O)[C@@H]2O (single isomer, unassigned) ?
49.3
